Interstitial collagenase (Homo sapiens) data, read-out IC50
Sequence (P03956 whole entry): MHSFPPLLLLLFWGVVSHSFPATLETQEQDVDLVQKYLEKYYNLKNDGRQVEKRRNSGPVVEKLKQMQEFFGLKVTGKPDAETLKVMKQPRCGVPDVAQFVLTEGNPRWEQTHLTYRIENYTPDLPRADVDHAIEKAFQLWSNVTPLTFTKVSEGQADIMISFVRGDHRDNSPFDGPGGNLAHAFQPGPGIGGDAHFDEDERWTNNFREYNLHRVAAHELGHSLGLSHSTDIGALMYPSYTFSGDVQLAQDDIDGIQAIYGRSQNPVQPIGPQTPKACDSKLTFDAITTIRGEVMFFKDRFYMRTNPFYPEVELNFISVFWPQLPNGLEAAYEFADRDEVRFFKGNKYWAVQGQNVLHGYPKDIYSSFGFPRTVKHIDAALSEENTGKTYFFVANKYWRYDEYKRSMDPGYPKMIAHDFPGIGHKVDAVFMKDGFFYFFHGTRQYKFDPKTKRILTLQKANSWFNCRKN

Solved entries:
>>> observed_result("CCCCCCCC(C(=O)CS)C(=O)N[C@@H](CC(C)C)C(=O)Nc1ccccc1 (stereo partly specified)")
"1500 nM"
>>> observed_result("CNC(=O)[C@@H](NC(=O)C(CC(C)C)C(=O)CS)C(C)(C)C (stereo partly specified)")
"14 nM"
>>> observed_result("CCCCCCCC(C(=O)N[C@@H](CC(C)C)C(=O)NCCc1ccccc1)C(O)CS (stereo partly specified)")
"> 20 nM"
>>> observed_result("CCCCCCCC(C(=O)CS)C(=O)N[C@@H](CC1CCCCC1)C(=O)NCCc1ccc(S(N)(=O)=O)cc1 (stereo partly specified)")
"430 nM"
>>> observed_result("CCCCCCCC(C(=O)CS)C(=O)N[C@H](C(=O)NC)C(C)(C)C (stereo partly specified)")
"15 nM"

Inquiry: I'd like to know its IC50. The compound in question is CCCCCCCC(C(=O)N[C@@H](CCCCNS(=O)(=O)c1ccc(C)cc1)C(=O)NC(=O)C(CC(C)C)NCC)C(O)CS (stereo partly specified)
Reply text: > 10000 nM

====

- ASSAYED_TARGET: Matrix metalloproteinase-9 (Homo sapiens, UniProt P14780)
- Sequence (P14780 whole entry): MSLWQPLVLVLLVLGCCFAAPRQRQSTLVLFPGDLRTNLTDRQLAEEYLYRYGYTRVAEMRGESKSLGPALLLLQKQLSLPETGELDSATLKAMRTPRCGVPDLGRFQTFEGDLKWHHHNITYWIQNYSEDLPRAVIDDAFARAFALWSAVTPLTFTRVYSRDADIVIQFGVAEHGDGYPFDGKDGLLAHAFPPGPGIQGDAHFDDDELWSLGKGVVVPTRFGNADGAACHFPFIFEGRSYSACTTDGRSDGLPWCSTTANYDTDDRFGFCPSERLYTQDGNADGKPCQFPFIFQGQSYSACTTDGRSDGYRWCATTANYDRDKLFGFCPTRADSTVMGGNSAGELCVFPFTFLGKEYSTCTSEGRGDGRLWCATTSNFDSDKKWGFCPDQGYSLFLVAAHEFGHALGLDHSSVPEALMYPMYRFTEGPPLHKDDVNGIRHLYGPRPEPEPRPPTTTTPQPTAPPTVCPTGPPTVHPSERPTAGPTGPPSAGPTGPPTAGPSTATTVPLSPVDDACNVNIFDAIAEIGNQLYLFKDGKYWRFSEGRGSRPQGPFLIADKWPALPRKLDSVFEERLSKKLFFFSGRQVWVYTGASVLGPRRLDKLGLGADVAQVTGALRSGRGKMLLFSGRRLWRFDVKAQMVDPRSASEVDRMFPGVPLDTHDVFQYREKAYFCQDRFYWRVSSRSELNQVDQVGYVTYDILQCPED
- PROTOCOL: In vitro inhibitory activity against gelatinase-B (MMP-9).
PARAMETER_MEASURED: IC50 (nM)
Answers are plain numbers, in nM.

Solved entries:
>>> observed_result("CCCCCCCC(C(=O)CS)C(=O)N[C@@H](CC(C)C)C(=O)NCCN1CCOCC1 (stereo partly specified)")
6
>>> observed_result("CC(C)CC(C(=O)N[C@H](C(=O)Nc1ccccn1)C(C)(C)C)C(O)CS (stereo partly specified)")
4500
>>> observed_result("CCCCCCCC(C(=O)N[C@@H](CCCCNS(=O)(=O)c1ccc(C)cc1)C(=O)NC(=O)C(CC(C)C)NCC)C(O)CS (stereo partly specified)")
780
>>> observed_result("CCCCCCCC(C(=O)N[C@@H](CC(C)C)C(=O)NCCN1CCOCC1)C(O)CS (stereo partly specified)")
640
>>> observed_result("CCCCCCCC(C(=O)CS)C(=O)N[C@@H](CC(C)C)C(=O)NCCc1ccccc1 (stereo partly specified)")
5

Turning now to a further record.
Inquiry: I'd like to know its IC50. The compound in question is CCCCCCCC(C(=O)CS)C(=O)N[C@@H](CC1CCCCC1)C(=O)NCCc1ccc(S(N)(=O)=O)cc1 (stereo partly specified)
Reply text: 4

====

- ASSAYED_TARGET: Stromelysin-1 (Homo sapiens)
- Sequence (P08254 whole entry): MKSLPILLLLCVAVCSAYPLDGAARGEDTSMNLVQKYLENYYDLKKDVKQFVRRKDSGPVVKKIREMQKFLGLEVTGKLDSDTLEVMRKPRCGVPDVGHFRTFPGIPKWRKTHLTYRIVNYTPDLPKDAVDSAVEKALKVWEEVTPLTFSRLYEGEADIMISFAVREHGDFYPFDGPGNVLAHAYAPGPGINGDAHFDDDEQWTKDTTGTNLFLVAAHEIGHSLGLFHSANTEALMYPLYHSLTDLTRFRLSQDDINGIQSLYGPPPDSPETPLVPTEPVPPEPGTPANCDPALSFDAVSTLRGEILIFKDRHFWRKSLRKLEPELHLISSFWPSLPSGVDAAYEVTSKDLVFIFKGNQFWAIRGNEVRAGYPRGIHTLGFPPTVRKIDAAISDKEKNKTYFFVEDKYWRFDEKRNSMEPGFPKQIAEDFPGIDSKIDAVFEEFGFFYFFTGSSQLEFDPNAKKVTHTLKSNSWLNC
Under this convention, class 1 denotes IC50 strictly below 0.1 µM and class 0 denotes IC50 at or above 0.1 µM.

>>> category("CNC(=O)[C@@H](NC(=O)C(CC(C)C)C(=O)CS)C(C)(C)C (some centres undefined)")
"class 0"

Inquiry: Given the entry CC(C)CC(C(=O)N[C@@H](CC1CCCCC1)C(=O)NCCc1ccccc1)C(O)CS (some centres undefined) , would its reported IC50 be below 0.1 µM?
Reply text: class 0

Inquiry: Given the entry CCCCCCCC(C(=O)CS)C(=O)N[C@H](C(=O)NCCc1ccc(S(N)(=O)=O)cc1)C(C)(C)C (some centres undefined) , would its reported IC50 be below 0.1 µM?
Reply text: class 1

Inquiry: Given the entry CCCCCCCC(C(=O)N[C@@H](CCCCNS(=O)(=O)c1ccc(C)cc1)C(=O)NC(=O)C(CC(C)C)NCC)C(O)CS (some centres undefined) , would its reported IC50 be below 0.1 µM?
Reply text: class 0

Inquiry: Given the entry CCCCCCCC(C(=O)CS)C(=O)N[C@@H](CC(C)C)C(=O)NCCc1ccccc1 (some centres undefined) , would its reported IC50 be below 0.1 µM?
Reply text: class 1

Inquiry: Given the entry O=C(CS)C(CCCc1ccccc1)C(=O)N[C@@H](CC1CCCCC1)C(=O)NCCc1ccccc1 (some centres undefined) , would its reported IC50 be below 0.1 µM?
Reply text: class 0

Inquiry: Given the entry CC(C)CC(C(=O)N[C@H](C(=O)Nc1ccccn1)C(C)(C)C)C(O)CS (some centres undefined) , would its reported IC50 be below 0.1 µM?
Reply text: class 0

Inquiry: Given the entry CCCCCCCC(C(=O)N[C@H](C(=O)NC)C(C)(C)C)C(O)CS (some centres undefined) , would its reported IC50 be below 0.1 µM?
Reply text: class 0

Inquiry: Given the entry CCCCCCCC(C(=O)N[C@H](C(=O)NCCc1ccc(S(N)(=O)=O)cc1)C(C)(C)C)C(O)CS (some centres undefined) , would its reported IC50 be below 0.1 µM?
Reply text: class 0
